test.target: human cloned 5-HT6 receptors (Homo sapiens, UniProt P50406)
Construct: expressed in transfected cells; host or cells: HeLa cells (membrane preparation)
Sequence (P50406 whole entry): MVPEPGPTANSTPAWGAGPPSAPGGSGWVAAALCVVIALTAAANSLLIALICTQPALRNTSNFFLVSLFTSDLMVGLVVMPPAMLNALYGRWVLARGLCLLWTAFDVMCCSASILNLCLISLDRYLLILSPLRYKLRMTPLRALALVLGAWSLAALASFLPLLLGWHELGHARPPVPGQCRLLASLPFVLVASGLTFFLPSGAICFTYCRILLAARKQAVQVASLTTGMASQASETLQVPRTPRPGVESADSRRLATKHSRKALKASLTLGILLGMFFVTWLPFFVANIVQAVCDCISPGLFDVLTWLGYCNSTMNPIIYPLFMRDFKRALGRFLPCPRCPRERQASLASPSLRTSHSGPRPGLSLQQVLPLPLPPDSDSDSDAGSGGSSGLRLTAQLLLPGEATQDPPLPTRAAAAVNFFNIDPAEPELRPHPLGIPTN
assay.notes: 5-HT6 binding affinity, [3H]-LSD displacement on membranes of Hela cells expressing human cloned 5-HT6 receptors
test.settings: [3H]-LSD 3.0 nM, Hela cell membranes, 120 min at room temperature; read-out: 5-HT6 Binding Ki
Protocol: The affinity of test compounds for the serotonin 5-HT6 receptor is evaluated in the following manner. […] The final pellet is suspended in a small volume of Tris.HCl buffer and the tissue protein content is determined in aliquots of 10-25 μl volumes. […] Binding in the presence of varying concentrations of test compound is expressed as a percentage of specific binding in the absence of test compound. […]
Structures can show the parent of a compound that is named as a salt.
readout: Ki (µM)

{"columns": ["molecule", "readout", "units.text", "result.number"],
 "data": [
  ["O=S(=O)(c1ccccc1)c1nn(-c2cccc(C(F)(F)F)c2)c2ccc(N3CCN(Cc4ccccc4)CC3)cc12 [Example 28]", "Ki", "µM", 0.136]
]}

I: O=S(=O)(c1ccccc1)c1nn(-c2ccc(C(F)(F)F)cc2)c2ccc(N3CCNCC3)cc12 [Example 33]
II: COc1cc2[nH]nc(S(=O)(=O)c3ccccc3)c2cc1N1CCN(Cc2ccccc2)CC1 [Example 7, hydrochloride]
III: COc1ccc(Cl)cc1S(=O)(=O)c1n[nH]c2ccc(N3CCN(C)CC3)cc12 [Example 77]
### Prompt Arrange these molecules by their Ki, starting with the largest number. Note for the reader: the ranking is given by listing the labels in the order requested.
### Response II, I, III
(II: 0.113 µM, I: 0.019 µM, III: 0.002 µM)

* * *

test.target: human cloned 5-HT6 receptors (Homo sapiens)
Construct: expressed in transfected cells; host or cells: HeLa cells (membrane preparation)
assay.notes: 5-HT6 binding affinity, [3H]-LSD displacement on membranes of Hela cells expressing human cloned 5-HT6 receptors
test.settings: [3H]-LSD 3.0 nM, Hela cell membranes, 120 min at room temperature; read-out: 5-HT6 Binding Ki
Counter-ions that a name gives are not always drawn.
readout: Ki (nM)

Recorded results for 2 compounds are shown here.
{"columns": ["compound", "units.text", "result.number"],
 "data": [
  ["CN1CCN(c2ccc3c(c2)c(S(=O)(=O)c2cccc4ccccc24)nn3Cc2ccccc2)CC1 [Example 52]", "nM", 2],
  ["CN1CCN(c2cc(Cl)cc3c(S(=O)(=O)c4cccc5ccccc45)n[nH]c23)CC1 [Example 100]", "nM", 5]
]}

A: CN1CCN(c2ccc3[nH]nc(S(=O)(=O)c4ccc(Cl)cc4)c3c2)CC1 [Example 67]
B: O=S(=O)(c1ccccc1)c1nn(CCc2ccccc2)c2ccc(N3CCNCC3)cc12 [Example 31]
### Prompt Please state the entry with greater Ki among A and B . Lab note: record the label of whichever item you select.
### Response A
(A: 8 nM, B: 3 nM)

a: COc1cccc(-n2nc(S(=O)(=O)c3ccccc3)c3cc(N4CCNCC4)ccc32)c1 [Example 36]
b: COc1cc2c(cc1N1CCNCC1)c(S(=O)(=O)c1ccccc1)nn2-c1ccc(C(F)(F)F)cc1 [Example 10, hydrochloride]
### Prompt Which one would you say has the larger Ki value: a , or b ? Your choice should be expressed through its label.
### Response b

1: COc1cccc(S(=O)(=O)c2n[nH]c3ccc(N4CCN(C)CC4)cc23)c1 [Example 63]
2: CN1CCN(c2ccc3[nH]nc(S(=O)(=O)c4ccc(Br)cc4)c3c2)CC1 [Example 17]
3: CN1CCN(c2cc(Cl)cc3c(S(=O)(=O)c4ccc(F)cc4)n[nH]c23)CC1 [Example 97]
### Prompt Sequence the entries by Ki, beginning with the highest number. Please express your ranking as an ordered list of the labels.
### Response 3, 2, 1

P: CN1CCN(c2ccc3[nH]nc(S(=O)(=O)c4ccccc4Br)c3c2)CC1 [Example 89]
Q: CN1CCN(c2ccc3[nH]nc(S(=O)(=O)c4ccc5ccccc5c4)c3c2)CC1 [Example 72]
R: CN1CCN(c2ccc3[nH]nc(S(=O)(=O)c4ccccc4F)c3c2)CC1 [Example 18]
### Prompt List the 3 entries from lowest Ki to highest Ki value. Answer by listing the labels in the requested order.
### Response Q, R, P
(Q: 2 nM, R: 6 nM, P: 10 nM)
